# Test Protocol: Phase I single-dose clinical trial, pharmacokinetics
# Format: in vivo
# Condition Notes: human, plasma, oral; single administration, 10 mg to 800 mg; read-out: T1/2, range over dose groups
Recorded Metric: half-life

Any idea what half-life was measured for C=CC(=O)N1CCC[C@@H](n2nc(-c3ccc(Oc4ccccn4)cc3)c3c(N)n[nH]c(=O)c32)C1 [compound (I)] ?
0.847 to 8.67 h

====

# Test Protocol: Phase I single-dose clinical trial, pharmacokinetics
# Type: in vivo
# Condition Notes: human, plasma, oral; single administration, 10 mg to 800 mg; read-out: Tmax, range over dose groups
# Experimental: In this example, 96 healthy Chinese aged 18 to 45 were recruited as subjects. […] The analysis was performed using the Per-protocol set. […] The main pharmacokinetic parameters of each subject were calculated using a non-compartmental model, and the linear relationship between dose and Cmax and AUC0-t was analyzed using a power function model.
Recorded Metric: Tmax

Param item = C=CC(=O)N1CCC[C@@H](n2nc(-c3ccc(Oc4ccccn4)cc3)c3c(N)n[nH]c(=O)c32)C1 [compound (I)] ; retrieve measured Tmax.
1.03 to 2 h
